List of protein stability index values.
Experiment: protein stability index of a GFP-peptide fusion (yeast GPS) (PSI 1-4); higher = more stable; sorted into four equal gates, so the index is relative within each strain
Conditions: san1∆

| SEQUENCE INPUT | protein stability index |
| --- | --- |
| LIGCIPYSKNAVEQLAG [YDL088C/ASM4] | 2.94 |
| RQLQYETLGDILKRDFE [ECM29] | 2.76 |
| PGHSLLLSIKLPGKVNT [SNF5] | 2.08 |
| VVFDSNEAPPKTSLADW [YMR153W/NUP53] | 3.06 |
| ESPNYCNALIHIKFSAG [SRB4] | 1.93 |
| WPKTRGVAMNPVDHPHG [RPL2A] | 2.74 |
| SSVKTCFKPMSLTSKRL [RIP1] | 2.85 |
| QVRKDLGNVIVPNILSL [NUT1] | 2.46 |
| RIHTNDNDIMNLGSRTK [SSN3] | 2.95 |
| KIIDNPKSFLKKDQSVL [YMR129W/POM152] | 3.07 |
| GDRGALARASGNYVIII [RPL2A] | 2.84 |
| KKNVWRSINNLIQEHDS [BRN1] | 2.63 |
| VGTAIDSILNYAKSEFD [ECM29] | 2.92 |
| DGEGKVDSISLHKIFYK [YCG1] | 3.13 |
| PDCKIKIAHGTTTLAFR [PRE2] | 2.65 |
| TYEAIDVPGRELKYELI [RPB2] | 3.1 |
| DKELRKTKFQYKFLDQN [YIL149C/MLP2] | 2.96 |
| LELNLSVLHSWVQLVQI [YJL039C/NUP192] | 2.11 |
| VSTKTNEYRLAFYQVTP [RPL22A] | 2.6 |
| KIPEREEKSNEVKTPKI [SIR4] | 3.46 |
| TYRYVSVSVLVDRLKIG [RPS25A] | 1.72 |
| LASSFVNGFLNLGYCND [RPN1] | 3.27 |
| IVAALPISEKGLTLSTT [RPP1] | 2.65 |
| IKGNGESDETTTDNNNS [RPT1] | 3.38 |
| EDFLHFIVAEYIQQKKV [SRB4] | 2.28 |
| SQSLGVSNKFEKIFHYG [PUP3] | 2.95 |
| DDDDNNESSSNTTVISD [DIS3] | 2.97 |
| SKYLIKQIDIPNFNVEI [ECM29] | 2.57 |
| RQSSDESDNYRLLPNGS [YML031W/NDC1] | 3.13 |
| KEMTLQKNMNDLLRSQL [YIL149C/MLP2] | 2.19 |
| QEKQEQQEQDKKKKSNH [PRE6] | 2.55 |
| NKTAHLSIPGKSTPEGT [SNU114] | 2.79 |
| DFIDTATRHVLMRQGVL [RPS3] | 3.38 |
| HFFSKSCSFFAKLSDTL [NUT1] | 1.69 |
| DTAPKPNIVEIDLDNDE [DLS1] | 3.03 |
| KNKGLVVSPYDYNHKRV [DIB1] | 3.02 |
| IYAKQQEQLKQMDQQLQ [ARP7] | 2.2 |
| TWIHSEIEELKSSIQNL [SMC3] | 2.29 |
| KAEKKVELHGKRKLDIG [PRP8] | 3.13 |
| PSTKVASSAVMNRRKIA [YLR335W/NUP2] | 2.14 |
| TQSYNNQNTLKEISARR [POP1] | 2.24 |
| KAINQELEDVAVKKLYA [YCS4] | 2.72 |
| NYDIITASSLAHDYNND [YML103C/NUP188] | 2.61 |
| CYFRDFEYCRIDGSTSH [ISW2] | 2.48 |
| KLWFQLSESLTKFFDDA [RPN9] | 3.02 |
| GTANNNSNTTNQNSSTG [YJL041W/NSP1] | 3.25 |
| SERDSKDRYINGDKKVD [YMR129W/POM152] | 3.15 |
